test: Photocytotoxicity against human HT-29 cells assessed as reduction in cell survival irradiated with 1.5 J/cm2 UV-light for 5 mins measured after 48 hrs by MTT assay; assay type: functional, cell-based; conditions: HT-29, light or radiation study
parameter: log10 of EC50 (log10 of the value in nM)

| molecular-string | log10 of EC50 |
| --- | --- |
| CCOC(=O)c1cc2c(n1Cc1ccccc1)-c1nc(N)ncc1CCC2 | 2.45 |
| CCOC(=O)c1cc2c(n1Cc1ccccc1)-c1nc(NC3CCCCC3)ncc1CCC2 | 1.90 |
| COc1ccc(Cn2c(C(N)=O)cc3c2-c2nc(Nc4ccccc4)ncc2CCC3)cc1 | 2.45 |
| COc1ccc(Cn2c(C(N)=O)cc3c2-c2nc(N)ncc2CCC3)cc1 | 3.30 |
| CCOC(=O)c1cc2c(n1Cc1ccc(OC)cc1)-c1nc(N)ncc1CCC2 | 2.46 |
| CCOC(=O)c1cc2c(n1C)-c1nc(Nc3ccccc3)ncc1CCC2 | 2.46 |
| NC(=O)c1cc2c(n1Cc1ccccc1)-c1nc(NC3CCCCC3)ncc1CCC2 | 2.57 |
| Cn1c(C(N)=O)cc2c1-c1nc(Nc3ccccc3)ncc1CCC2 | 3.27 |

###

Overview of recorded selectivity ratio for various compounds
assay: Selectivity index, ratio CC50 for cytotoxicity against human MCF7 cells to EC50 for photocytotoxicity against human MCF7 cells; type: toxicity, cell-based; details: read-out: Ratio CC50/EC50
parameter: selectivity ratio

| molecular-string | result |
| --- | --- |
| COc1ccc(Cn2c(C(N)=O)cc3c2-c2nc(Nc4ccccc4)ncc2CCC3)cc1 | > 358 |
| CCOC(=O)c1cc2c(n1C)-c1nc(Nc3ccccc3)ncc1CCC2 | > 709 |
| CCOC(=O)c1cc2c(n1Cc1ccccc1)-c1nc(NC3CCCCC3)ncc1CCC2 | > 1050 |
| Cn1c(C(N)=O)cc2c1-c1nc(Nc3ccccc3)ncc1CCC2 | > 20 |
| CCOC(=O)c1cc2c(n1C)-c1nc(NC3CCCCC3)ncc1CCC2 | > 1250 |
| CCOC(=O)c1cc2c(n1C)-c1nc(N)ncc1CCC2 | > 65 |

###

Overview of recorded selectivity ratio for various molecules
experiment: Selectivity index, ratio CC50 for cytotoxicity against human MCF7 cells to EC50 for photocytotoxicity against human MCF7 cells; assay type: toxicity, cell-based; details: read-out: Ratio CC50/EC50

| molecular-string | selectivity ratio |
| --- | --- |
| COc1ccc(Cn2c(C(N)=O)cc3c2-c2nc(NC4CCCCC4)ncc2CCC3)cc1 | > 549 |
| COc1ccc(Cn2c(C(N)=O)cc3c2-c2nc(N)ncc2CCC3)cc1 | > 31 |
| NC(=O)c1cc2c(n1Cc1ccccc1)-c1nc(Nc3ccccc3)ncc1CCC2 | 64 |
| Cn1c(C(N)=O)cc2c1-c1nc(N)ncc1CCC2 | > 1.5 |
| Cn1c(C(N)=O)cc2c1-c1nc(NC3CCCCC3)ncc1CCC2 | 41 |
| CCOC(=O)c1cc2c(n1Cc1ccc(OC)cc1)-c1nc(N)ncc1CCC2 | > 150 |
| CCOC(=O)c1cc2c(n1Cc1ccc(OC)cc1)-c1nc(Nc3ccccc3)ncc1CCC2 | > 117 |
| CCOC(=O)c1cc2c(n1Cc1ccccc1)-c1nc(Nc3ccccc3)ncc1CCC2 | > 412 |
| NC(=O)c1cc2c(n1Cc1ccccc1)-c1nc(N)ncc1CCC2 | > 27 |
| NC(=O)c1cc2c(n1Cc1ccccc1)-c1nc(NC3CCCCC3)ncc1CCC2 | > 569 |
| CCOC(=O)c1cc2c(n1Cc1ccc(OC)cc1)-c1nc(NC3CCCCC3)ncc1CCC2 | > 952 |
| CCOC(=O)c1cc2c(n1Cc1ccccc1)-c1nc(N)ncc1CCC2 | 93 |
